Value source: patent US11028051B2

Target: BRD2-BD2 (Homo sapiens (Human))
Sequence (P25440 344-453): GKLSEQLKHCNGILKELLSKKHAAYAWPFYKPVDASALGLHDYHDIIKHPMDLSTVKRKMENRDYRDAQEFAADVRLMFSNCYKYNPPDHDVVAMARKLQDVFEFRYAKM
Assay: competitive TR-FRET assay, BET-BD with acetylated peptide ligand
Assay type: binding
Conditions: Table 4; read-out: EC50 (μM) BRD2(2)
QUANTITY: EC50 (µM)

{"COMPOUND": "CC(=O)N1c2ccc(-c3ccc(C(=O)O)cc3)cc2[C@H](Nc2ccc(Cl)cc2)C[C@@H]1C [GSK-726, IBET-726, reference compound]", "EC50 [µM]": 0.057}
{"COMPOUND": "COC(=O)c1ccc(N[C@@H]2C[C@H](C)N(C(C)=O)c3ccc(-c4cccc(NC(C)=O)c4)cc32)cc1", "EC50 [µM]": 0.022}
{"COMPOUND": "CC(=O)Nc1cccc(-c2ccc3c(c2)[C@H](Nc2ccccc2C(F)(F)F)C[C@H](C)N3C(C)=O)c1", "EC50 [µM]": 0.35}
{"COMPOUND": "CC(=O)Nc1cccc(-c2ccc3c(c2)[C@H](Nc2ccc(F)cc2)C[C@H](C)N3C(C)=O)c1", "EC50 [µM]": 0.11}
{"COMPOUND": "COc1ccccc1N[C@@H]1C[C@H](C)N(C(C)=O)c2ccc(-c3cccc(NC(C)=O)c3)cc21", "EC50 [µM]": 0.06}

P. CC(=O)Nc1cccc(-c2ccc3c(c2)[C@H](Nc2ccccc2OC(F)(F)F)C[C@H](C)N3C(C)=O)c1
Q. CC(=O)Nc1cccc(-c2ccc3c(c2)[C@H](Nc2ccc(Cl)cc2)C[C@H](C)N3C(C)=O)c1
Prompt: Would you let me know which has the greater EC50 value, P or Q ? API: response body contains the label of the selected item.
Response: P
(P: 0.16 µM, Q: 0.08 µM)
